Quick reference for pIC50 among some compounds
# systemUnderTest: CBL-B (Homo sapiens, UniProt Q13191)
# Construct: GST
# Sequence (Q13191 whole entry): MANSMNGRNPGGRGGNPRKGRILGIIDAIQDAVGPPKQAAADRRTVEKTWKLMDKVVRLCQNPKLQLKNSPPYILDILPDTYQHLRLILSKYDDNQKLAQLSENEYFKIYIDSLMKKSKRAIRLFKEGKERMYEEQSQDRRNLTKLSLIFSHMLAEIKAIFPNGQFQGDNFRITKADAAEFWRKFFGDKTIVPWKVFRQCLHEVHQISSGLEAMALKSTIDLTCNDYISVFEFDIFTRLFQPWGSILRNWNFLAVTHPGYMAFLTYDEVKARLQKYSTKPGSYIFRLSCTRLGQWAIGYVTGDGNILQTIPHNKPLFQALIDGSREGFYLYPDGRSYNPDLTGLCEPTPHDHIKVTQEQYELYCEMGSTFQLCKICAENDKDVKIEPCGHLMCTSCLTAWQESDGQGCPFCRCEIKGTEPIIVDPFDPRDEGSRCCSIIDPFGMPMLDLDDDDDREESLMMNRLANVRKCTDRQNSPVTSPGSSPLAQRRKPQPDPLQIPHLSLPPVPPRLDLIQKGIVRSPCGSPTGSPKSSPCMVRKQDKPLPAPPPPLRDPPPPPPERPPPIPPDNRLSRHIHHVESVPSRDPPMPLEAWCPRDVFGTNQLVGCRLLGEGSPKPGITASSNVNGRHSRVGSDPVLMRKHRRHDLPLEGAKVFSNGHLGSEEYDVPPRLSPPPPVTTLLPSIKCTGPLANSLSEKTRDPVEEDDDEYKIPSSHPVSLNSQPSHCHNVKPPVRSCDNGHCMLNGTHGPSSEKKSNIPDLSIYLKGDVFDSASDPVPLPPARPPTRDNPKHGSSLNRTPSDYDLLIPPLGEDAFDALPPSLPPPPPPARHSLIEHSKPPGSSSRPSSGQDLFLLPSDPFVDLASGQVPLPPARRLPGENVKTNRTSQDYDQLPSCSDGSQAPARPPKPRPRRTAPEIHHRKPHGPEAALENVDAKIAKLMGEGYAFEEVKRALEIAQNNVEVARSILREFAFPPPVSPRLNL
# assayExplanation: CBL-B TR-FRET IC50 screening (E1/E2 ubiquitination, Biotin-Ubiquitin, Anti GST-Tb donor / Streptavidin-d2 acceptor)
# Assay type: biochemical
# statedConditions: CBL-B 10 nM final; 11-point titration from 100 uM; binned A-F; read-out: CBL-B TR-FRET activity IC50
pIC50: −log10 of the molar value.

Below, 6 compounds whose answers are already recorded.
Cn1cnnc1CC1(c2cccc(-n3cc4c(C(F)F)cccn4c3=O)c2)COC1 [Compound 95]    6.00 to 6.52
Cn1cnnc1[C@H](c1cccc(-n2cc3c(C(F)(F)F)cc(CN4CCN(C=O)CC4)cn3c2=O)c1)C1CCC1 [Compound 340_P1]    > 7.00
Cn1cnnc1CC1(c2cccc(-n3cc4c(C(F)(F)F)cc(OCC(C)(C)O)cn4c3=O)c2)COC1 [Compound 98]    6.52 to 7.00
C[C@H]1CCCCN1Cc1cc(C(F)(F)F)c2cn(-c3cccc([C@H](c4nncn4C)C4CCC4)c3)c(=O)n2c1 [Compound 362_P2]    6.52 to 7.00
C[C@H](c1cc(C(F)(F)F)c2cn(-c3cccc(C4(Cc5nncn5C)COC4)c3)c(=O)n2c1)N1CC2CC2C1 (stereo partly shown) [Compound 37]    > 7.00
C[C@H]1CCCN(Cc2cc(C(F)(F)F)c3cn(-c4cccc([C@@H](c5nncn5C)C5CCC5)c4)c(=O)n3c2)C1 [Compound 86]    6.00 to 6.52

Switching to the query record.
What does the data say about its pIC50? Entry: CO[C@@H]1CCCN(Cc2cc(C(F)(F)F)c3cn(-c4cccc(C5(Cc6nncn6C)COC5)c4)c(=O)n3c2)C1 [Compound 124]
> 7.00

These data points were gathered from patent US20240228482A1.
